- Tested on: P-gp
- assay explanation: Bi-directional permeability study using Caco-2 cells
- condition: human, Caco-2, pH 7.4, Papp B-A (mean), 1 μM + 100 μM ketoconazole

{"compound": "C[C@H]1O[C@@H](O[C@H]2[C@@H](O)C[C@H](O[C@H]3[C@@H](O)C[C@H](O[C@H]4CC[C@@]5(C)[C@H](CC[C@@H]6[C@@H]5C[C@@H](O)[C@]5(C)[C@@H](C7=CC(=O)OC7)CC[C@]65O)C4)O[C@@H]3C)O[C@@H]2C)C[C@H](O)[C@@H]1O [digoxin, reference compound]", "result unit": "×10⁻⁶ cm/s", "Papp B→A at 120 min, 1 μM": 1.8}

---

- Test system: P-gp
- assay explanation: Bi-directional permeability study using Caco-2 cells
- condition: human, Caco-2, pH 6, Papp A–B (mean), 1 μM + 100 μM ketoconazole
measurement label: Papp A→B at 120 min, 1 μM (×10⁻⁶ cm/s)

{"molecule": "C[C@H]1O[C@@H](O[C@H]2[C@@H](O)C[C@H](O[C@H]3[C@@H](O)C[C@H](O[C@H]4CC[C@@]5(C)[C@H](CC[C@@H]6[C@@H]5C[C@@H](O)[C@]5(C)[C@@H](C7=CC(=O)OC7)CC[C@]65O)C4)O[C@@H]3C)O[C@@H]2C)C[C@H](O)[C@@H]1O [digoxin, reference compound]", "target entity": "P-gp", "measurement label": "Papp A→B at 120 min, 1 μM", "result unit": "×10⁻⁶ cm/s", "assay value": 3.7}
